- testDetails: modulators of S6 phosphorylation in cells, primary screen, cell-based, A549, cytoblot, luminescence, serum-stimulated (AID 1158);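 note: serum-stimulated A549 lung adenocarcinoma cells; signal is phosphorylated S6 detected by cytoblot immunostaining with HRP secondary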
- conditions: A549 phospho-S6 cytoblot, 5 h, higher = more signal
Quick rule for you: z-score at -0.09 or higher means TRUE, lower means FALSE.

1) COC(=O)[C@@]1(Cc2ccc(F)cc2)[C@H]2c3cc(C(=O)N4CCCC4)n(Cc4ccc(OC(F)(F)F)cc4)c3C[C@H]2CN1C(=O)c1ccccc1    TRUE
2) CO[C@H]1O[C@H](CO)[C@@H](OC(=O)Nc2cccc(F)c2)[C@H](OC(=O)Nc2ccc3c(c2)OCO3)[C@@H]1OC(=O)Nc1ccc2c(c1)OCO2    TRUE
3) COc1ccc(CCNC(=O)[C@@]2(C)c3ccccc3C(=O)N(Cc3ccc(OC(F)(F)F)cc3)[C@H]2c2ccc(CO)cc2)cc1    TRUE
4) O=C1C2C=CC(C(O)c3ccccn3)N(Nc3ccc([N+](=O)[O-])cc3)C2C(=O)N1c1ccccc1 (stereo not drawn)    FALSE
5) C=C(C(=O)CC[C@@H](OC(=O)c1cccnc1)c1cccc(OCCO)c1)C(C)C    TRUE
6) O=C1O[C@H](c2ccccc2)[C@H](c2ccccc2)N2[C@H]1[C@@H](C(=O)N1CCN(c3ncccn3)CC1)[C@]1(C(=O)Nc3ccc(C#CC4(O)CCCCCC4)cc31)[C@H]2c1ccc(O)cc1    TRUE
7) COC(=O)Cn1c(C(=O)N(C)C)cc2c1C[C@H]1CN(C(=O)c3ccccc3)[C@@](Cc3ccccc3)(C(=O)OC)[C@@H]21    TRUE
8) Cc1cccc([C@H]2C[C@H]3C(Br)=C[C@@]2(CO)C(=O)[C@]32CO2)c1    FALSE
9) C=CCC(OC(C)=O)[C@@H]1[C@@H](N(Cc2ccc(-c3ccccc3)cc2)C(=O)Cc2ccc(OC)cc2)c2cc(OCCCO)ccc2N1C(=O)Cc1ccc(OC)cc1 (stereo partly drawn)    TRUE
10) O=C1O[C@H](c2ccccc2)[C@H](c2ccccc2)N2[C@H]1[C@@H](C(=O)Nc1nc3ccccc3s1)[C@]1(C(=O)Nc3ccccc31)[C@H]2c1ccccc1OCCO    TRUE
11) CCOC(=O)C[C@H]1[C@H](OC(=O)c2cc3ccccc3oc2=O)[C@@H](NC(=O)Cc2ccc(OC)cc2)c2cc(OCCCO)ccc2N1C(=O)Cc1ccc(OC)cc1    TRUE
12) COC(=O)[C@@]1(Cc2ccc(F)cc2)[C@H]2c3cc(C(=O)N4CCCC4)n(C[C@H](O)CO)c3C[C@H]2CN1C(=O)c1ccccc1    FALSE
13) CO[C@H]1O[C@H](CO)[C@@H](OC(=O)Nc2cccc(F)c2)[C@H](OC(=O)c2cc3ccccc3[nH]2)[C@H]1OC(=O)c1cc2ccccc2[nH]1    TRUE
14) [N-]=[N+]=NCc1ccccc1C[C@@]1(C(=O)NCCN2CCOCC2)N=C(c2ccc(OCCCO)cc2)O[C@@H]1c1ccccc1    FALSE
15) COC(=O)[C@@]1(Cc2ccc(F)cc2)[C@H]2c3cc(C(=O)N4CCCC4)n(CCSCCO)c3C[C@H]2CN1C(=O)c1ccccc1    TRUE
16) C=CCN1C(=O)[C@@]2(O[C@@H](CCO)[C@H]([Si](C)(C)c3ccc(OC)cc3)[C@H]2C)c2cc(N3CCCCC3=O)ccc21    TRUE
17) C=CCOC(=O)[C@H]1[C@@H]2C(=O)O[C@@H](c3ccccc3)[C@@H](c3ccccc3)N2[C@@H](c2ccc(OCCOC(=O)[C@H]3C[C@H]4C(=O)NCC(=O)N4[C@H]3c3ccc(O)cc3)cc2)[C@]12C(=O)Nc1ccccc12    FALSE
18) CCCC[C@@H](O)C1=C(C)Cn2c(=O)n(-c3ccccc3)c(=O)n2[C@H]1CO    TRUE
19) [N-]=[N+]=NCc1ccccc1C[C@]1(C(=O)N2CCCCC2)COC(c2ccc(OCCCO)cc2)=N1    FALSE
20) COC(=O)[C@H]1N=C(c2ccc(OCCCO)cc2)O[C@H]1c1ccccc1N=[N+]=[N-]    TRUE
21) COc1cc2c(cc1O)C(C)N(Cc1sc3ccccc3c1Cl)CC2 (stereo not drawn)    FALSE
22) CN1C(=O)C2CC=C(C3=CCO[C@@H]3[C@H]3CCCN3S(=O)(=O)c3ccccc3[N+](=O)[O-])CC2C1=O (stereo partly drawn)    FALSE
23) CC(C)N1C(=O)[C@@]2(Cc3ccccc31)c1ccccc1C(=O)N(Cc1ccccc1C(F)(F)F)[C@H]2c1ccc(CO)cc1    TRUE
24) COC(=O)[C@@]1(Cc2ccc(F)cc2)[C@H]2c3cc(C(=O)N4CCCC4)n(CCc4c[nH]c5cc(F)ccc45)c3C[C@H]2CN1C(=O)c1ccccc1    TRUE
25) CCCN1C(=O)[C@@]2(c3ccc([N+](=O)[O-])cc3)CC(=O)N(C3CCCCC3)[C@@H]2c2ccc(CO)cc21    FALSE
26) C=C[C@H](C)[C@@H](OC(=O)Nc1ccc(SC)cc1)c1ccc(OCCO)cc1    FALSE
27) COC(=O)[C@@]1(Cc2ccccc2)[C@H]2c3cc(C(=O)N(C)C)n(Cc4nc5ccccc5[nH]4)c3C[C@H]2CN1C(=O)c1ccccc1    TRUE
28) COC(=O)[C@@]1(Cc2ccccc2)[C@H]2c3cc(C(=O)N(C)C)n(Cc4ccc(Cl)c(C(F)(F)F)c4)c3C[C@H]2CN1C(=O)c1ccccc1    FALSE

Just for reference, PubChem BioAssay is where these values come from.
